- MEASUREMENT_TARGET: human FGFR1c together with human beta-Klotho (KLB), stably expressed on CHO Flp-In cells (human), P11362
- Sequence (P11362 22-822, chain 1 of 2): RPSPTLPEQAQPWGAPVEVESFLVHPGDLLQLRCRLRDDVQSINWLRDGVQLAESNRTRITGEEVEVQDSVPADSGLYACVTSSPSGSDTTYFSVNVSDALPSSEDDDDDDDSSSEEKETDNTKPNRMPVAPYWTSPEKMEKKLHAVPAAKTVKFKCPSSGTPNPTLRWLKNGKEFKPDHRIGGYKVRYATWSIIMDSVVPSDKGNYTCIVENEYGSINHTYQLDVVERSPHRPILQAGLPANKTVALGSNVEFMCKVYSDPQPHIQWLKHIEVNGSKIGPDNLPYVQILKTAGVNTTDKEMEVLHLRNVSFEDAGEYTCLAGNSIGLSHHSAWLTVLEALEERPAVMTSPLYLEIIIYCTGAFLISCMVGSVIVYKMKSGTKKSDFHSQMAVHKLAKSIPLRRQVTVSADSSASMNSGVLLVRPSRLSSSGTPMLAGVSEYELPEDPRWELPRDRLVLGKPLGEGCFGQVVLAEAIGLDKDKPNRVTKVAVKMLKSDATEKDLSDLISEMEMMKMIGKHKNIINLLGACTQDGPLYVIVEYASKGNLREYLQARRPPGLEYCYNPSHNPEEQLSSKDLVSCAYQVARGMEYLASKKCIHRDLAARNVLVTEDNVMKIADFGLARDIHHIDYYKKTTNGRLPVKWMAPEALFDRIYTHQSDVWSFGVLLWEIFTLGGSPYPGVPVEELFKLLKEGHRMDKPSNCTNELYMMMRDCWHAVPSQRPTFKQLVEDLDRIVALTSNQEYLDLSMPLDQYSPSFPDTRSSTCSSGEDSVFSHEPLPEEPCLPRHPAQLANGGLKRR
- Sequence (Q86Z14 whole entry, chain 2 of 2, further chain): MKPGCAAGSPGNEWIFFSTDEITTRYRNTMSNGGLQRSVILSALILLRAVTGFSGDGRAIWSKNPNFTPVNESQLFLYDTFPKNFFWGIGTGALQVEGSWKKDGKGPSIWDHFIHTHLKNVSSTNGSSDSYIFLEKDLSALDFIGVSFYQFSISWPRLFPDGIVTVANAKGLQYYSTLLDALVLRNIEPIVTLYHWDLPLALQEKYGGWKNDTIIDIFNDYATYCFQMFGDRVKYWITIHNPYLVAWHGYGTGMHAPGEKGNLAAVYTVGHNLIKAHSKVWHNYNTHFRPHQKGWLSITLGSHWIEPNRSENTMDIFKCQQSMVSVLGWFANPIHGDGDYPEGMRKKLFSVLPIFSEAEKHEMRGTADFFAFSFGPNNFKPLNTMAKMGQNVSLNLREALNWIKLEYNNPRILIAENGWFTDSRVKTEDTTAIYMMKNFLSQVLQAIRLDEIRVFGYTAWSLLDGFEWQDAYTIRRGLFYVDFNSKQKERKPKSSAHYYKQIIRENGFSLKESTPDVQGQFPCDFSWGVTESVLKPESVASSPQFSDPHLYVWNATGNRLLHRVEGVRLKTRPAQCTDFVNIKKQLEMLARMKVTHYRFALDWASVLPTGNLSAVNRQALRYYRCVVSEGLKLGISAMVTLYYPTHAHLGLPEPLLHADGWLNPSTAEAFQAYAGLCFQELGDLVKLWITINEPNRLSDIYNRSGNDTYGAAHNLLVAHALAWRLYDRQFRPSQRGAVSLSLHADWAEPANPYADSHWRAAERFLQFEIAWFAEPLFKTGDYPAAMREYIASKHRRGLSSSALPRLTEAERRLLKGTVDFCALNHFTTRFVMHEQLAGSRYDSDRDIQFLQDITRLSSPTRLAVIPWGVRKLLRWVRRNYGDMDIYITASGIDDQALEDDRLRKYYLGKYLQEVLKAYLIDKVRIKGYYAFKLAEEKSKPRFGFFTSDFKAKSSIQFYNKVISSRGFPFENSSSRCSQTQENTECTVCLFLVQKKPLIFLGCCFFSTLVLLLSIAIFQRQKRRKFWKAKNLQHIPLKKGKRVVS
- EXPERIMENT_SUMMARY: cell-based or functional assay
pERK ICW EC50 listing for selected binders.
QUANTITY: pERK ICW EC50 (nmol/L)

BINDER	QUANTITY	UNIT_OF_MEASURE	VALUE_MEASURED
FGF21 R159H (SEQ ID NO: 152), Q9NSA1 29-209 (ligand) GHPIPDSSPLLQFGGQVRQRYLYTDDAQQTEAHLEIREDGTVGGAADQSPESLLQLKALKPGVIQILGVKTSRFLCQRPDGALYGSLHFDPEACSFRELLLEDGYNVYQSEAHGLPLHLPGNKSPHRDPAPHGPARFLPLPGLPPAPPEPPGILAPQPPDVGSSDPLSMVGPSQGRSPSYAS	pERK ICW EC50	nmol/L	0.17
FGF21 N149-A162 deleted and replaced by GSHSG (SEQ ID NO: 137), Q9NSA1 29-209 (ligand) GHPIPDSSPLLQFGGQVRQRYLYTDDAQQTEAHLEIREDGTVGGAADQSPESLLQLKALKPGVIQILGVKTSRFLCQRPDGALYGSLHFDPEACSFRELLLEDGYNVYQSEAHGLPLHLPGGSHSGRFLPLPGLPPAPPEPPGILAPQPPDVGSSDPLSMVGPSQGRSPSYAS	pERK ICW EC50	nmol/L	0.57
FGF21 R154Q, D155L (SEQ ID NO: 130), Q9NSA1 29-209 (ligand) GHPIPDSSPLLQFGGQVRQRYLYTDDAQQTEAHLEIREDGTVGGAADQSPESLLQLKALKPGVIQILGVKTSRFLCQRPDGALYGSLHFDPEACSFRELLLEDGYNVYQSEAHGLPLHLPGNKSPHQLPAPRGPARFLPLPGLPPAPPEPPGILAPQPPDVGSSDPLSMVGPSQGRSPSYAS	pERK ICW EC50	nmol/L	0.14
